Cited source: ChEMBL document CHEMBL1151817

# System: DU-145
# Experimental details: Cytotoxicity against human DU145 cells after 72 hrs by MTT assay
# Format: functional
# Details: DU-145, 72 h
Endpoint label: GI50 (µM)
Numbers only, in µM.

Hi! Can you tell me GI50 for each of these compounds?
1. CC(C)CCCC(C)C1C(O)CC2C3CCC4CC(O)CCC4(C)C3CC(O)C21C (centres undefined)
2. C=C(C)C(CC)CCC(C)C1C(O)CC2C3CCC4CC(O)CCC4(C)C3CC(O)C21C (centres undefined)
3. CC(C)C(C)/C=C/C(C)C1C(O)CC2C3CCC4CC(O)CCC4(C)C3CC(O)C21C (centres undefined)
4. C=C(CCC(C)C1C(O)CC2C3CCC4CC(O)CCC4(C)C3CC(O)C21C)C(C)C (centres undefined)

Reply text:
1: 6.7; 2: 13; 3: 27; 4: 27
